tested on: HT29 colon; assay: NCI-60 one-dose screen, 48 h; conditions: 10 µM unless noted
Compounds without any hit were thinned out: in the full panel of roughly 83,000, 20% have a hit. Activity calls are given as the source filed them. The calls were made as follows: active = growth percent below 10; inactive = the rest.
// classify into active, inactive

Use the examples below as a reference point.
Compound | Target System | Label Class
CN1CCC(OC2c3ccccc3CCc3ccccc32)CC1 | HT29 colon | inactive
Oc1ccccc1/C=N/Nc1nc2ccccc2s1 | HT29 colon | inactive
O=[N+]([O-])c1cc2c(cc1Br)C1C(C3C2C(Cl)(Cl)C(Cl)=C(Cl)C3(Cl)Cl)C(Cl)(Cl)C(Cl)=C(Cl)C1(Cl)Cl (stereo not given) | HT29 colon | inactive
CN(C)c1ccc(/C=C(\C#N)c2cc3ccccc3n2C)cc1 | HT29 colon | inactive
COc1cc(/C=C/C(=O)CC(=O)/C=C/c2cc(Br)c(OC)c(OC)c2)cc(Br)c1OC | HT29 colon | inactive

Recorded call for COc1cc(/C=N/NC(=O)c2cnn3c2NC(c2ccccc2)C3)cc(OC)c1OC (stereo not given) ?
inactive

Recorded call for CON=C1C[C@]2(C[C@@H]3C[C@@H](C/C=C(\C)C[C@@H](C)/C=C/C=C4\CO[C@@H]5[C@H](O)C(C)=C[C@@H](C(=O)O3)[C@]45O)O2)O[C@H](/C(C)=C/C(C)C)[C@H]1C ?
inactive

Recorded call for Cc1c(C(=O)Nc2nc(-c3ccccc3)cs2)nnn1-c1cccc2ccccc12 ?
inactive

Recorded call for CSc1nnc(-c2sc3nnc(-c4ccccc4)c(-c4ccccc4)c3c2O)o1 ?
inactive

Recorded call for CCCCCCCCCCCCCCCC[N+]1(C)CCOCC1 ?
active
